Here, each record is paired with measured phosphorylation enrichment data.
- assayed-system: FGFR3 (UniProt P22607)
- Sequence (P22607 whole entry, looked up): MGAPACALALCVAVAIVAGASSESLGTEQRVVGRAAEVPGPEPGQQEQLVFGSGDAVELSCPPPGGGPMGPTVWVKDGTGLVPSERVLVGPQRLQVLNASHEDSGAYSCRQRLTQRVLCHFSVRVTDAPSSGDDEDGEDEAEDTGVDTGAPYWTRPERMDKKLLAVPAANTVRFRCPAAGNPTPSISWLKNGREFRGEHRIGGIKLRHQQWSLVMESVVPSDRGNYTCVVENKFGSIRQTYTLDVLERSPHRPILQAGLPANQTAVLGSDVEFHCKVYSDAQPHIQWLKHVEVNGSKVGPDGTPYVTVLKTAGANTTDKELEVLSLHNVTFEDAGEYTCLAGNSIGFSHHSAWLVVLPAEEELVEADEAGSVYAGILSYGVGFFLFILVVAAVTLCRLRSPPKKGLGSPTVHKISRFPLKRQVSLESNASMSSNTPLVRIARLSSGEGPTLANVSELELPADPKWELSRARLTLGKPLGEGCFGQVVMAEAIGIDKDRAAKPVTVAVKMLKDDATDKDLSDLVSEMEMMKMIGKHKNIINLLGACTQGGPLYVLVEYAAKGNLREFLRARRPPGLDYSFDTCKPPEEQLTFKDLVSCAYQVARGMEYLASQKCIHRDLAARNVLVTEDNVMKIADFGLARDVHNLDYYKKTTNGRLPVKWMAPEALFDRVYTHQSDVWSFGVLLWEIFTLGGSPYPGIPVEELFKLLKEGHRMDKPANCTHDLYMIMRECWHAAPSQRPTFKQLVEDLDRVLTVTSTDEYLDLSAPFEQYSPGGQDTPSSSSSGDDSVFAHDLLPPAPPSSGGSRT
- procedure-text: phosphorylation enrichment, bacterial display (enrichment ratio); higher = better substrate or ligand; peptides without Tyr show the background;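 further: 11-residue human phosphosite peptides and single-mutation variants displayed on the E. coli surface, counted by deep sequencing, each peptide's frequency after selection divided by its frequency in the unselected input library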;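 further: frequency after pTyr selection over input frequency; kinase dosed for 20-30% of maximal phosphorylation in three min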
observable: phosphorylation enrichment

{"sequence-data": "CRAVKYLQMVD [AVPR2_Y117_G122D]", "reported-measurement": 0.585}
{"sequence-data": "FFRNVYHLASV [RBL1_Y796_K794N_YF]", "reported-measurement": 0.532}
{"sequence-data": "AQMAMYFWEMS [TRPM4_Y577_G582S]", "reported-measurement": 2.88}
{"sequence-data": "TFWKKYCTFWK [CCDC70_Y125_R126C]", "reported-measurement": 0.619}
{"sequence-data": "SVICTYSPALN [TP53_Y126_T123I]", "reported-measurement": 0.779}
{"sequence-data": "TKYVAYIESQG [KDM4B_Y34_N29T]", "reported-measurement": 0.608}
{"sequence-data": "KIVYVYVKKRS [DNAI2_Y7_E2K]", "reported-measurement": 0.654}
{"sequence-data": "KASGKYYAMKI [AKT3_Y173]", "reported-measurement": 0.536}
{"sequence-data": "VHFARYLAMNK [HARS1_Y138_P134H]", "reported-measurement": 0.771}
{"sequence-data": "KPYRVYCDMNT [FGB_Y269]", "reported-measurement": 0.789}
{"sequence-data": "GDYYRSLAEVA [YWHAG_Y133_Y133S]", "reported-measurement": 3.26}
{"sequence-data": "VGIMLYGVDSR [PKD1_Y3143]", "reported-measurement": 0.792}
{"sequence-data": "GTVRDYPDFNP [ANXA3_Y15_S19N]", "reported-measurement": 0.526}
{"sequence-data": "AQINLYQDVML [ZNF806_Y33]", "reported-measurement": 1.29}
{"sequence-data": "KQINDYVEKGT [SERPINA1_Y184]", "reported-measurement": 0.58}
{"sequence-data": "QMVDMYASSYM [AVPR2_Y124_G122D]", "reported-measurement": 0.815}
{"sequence-data": "ESDFTYSSSFE [SRPK2_Y427_YF]", "reported-measurement": 0.723}
{"sequence-data": "ATLDVYNPFET [SCAMP3_Y41]", "reported-measurement": 0.652}
{"sequence-data": "LARDMCDKEFF [MET_Y1230_Y1230C_YF]", "reported-measurement": 1.06}
{"sequence-data": "LHAALYKRKLL [TTLL5_Y542_E543K]", "reported-measurement": 0.518}
